Data provenance is PubChem BioAssay (NCI).

test: NCI Yeast Anticancer Drug Screen. Data for the mlh1 rad18 strain (AID 175)
conditions: S. cerevisiae mlh1 rad18 strain growth inhibition; at 50.0 µM
About 79,000 compounds went through this panel and 15% of them were active in at least one assay; those are over-represented in the sample as a whole. Activity calls are given as the source filed them. No stated cut-off is given here; in the data, active means growth inhibition above about 70%; inactive means the rest.
Bench note: report the call from Y = active, N = inactive

Answered examples (4):
* [N-]=[N+]=NC1=C(N=[N+]=[N-])c2cccc3cccc(c23)C1=O | Y
* CCC[CH2][Sn]1([CH2]CCC)[O]CC(COc2c(Cl)cc(Cl)cc2Cl)[O]1 (stereo unspecified) | Y
* CCOP(=O)(NC12CC3CC(CC(C3)C1)C2)OCC | N
* COc1ccc(/C=C/c2cc(OC)c3c(c2)OCO3)cc1O | N

input: Lab log entry: "CN(CC(N)=O)C(=O)N(CCCl)N=O" — outcome as called in the assay?
output: N

input: Lab log entry: COc1c2c(nc3ccccc13)-c1cc3c(c(=O)n1C2)COC(=O)C3(O)CC(=O)N1CCOCC1 (stereo unspecified) — outcome as called in the assay?
output: N

----------
test: NCI Yeast Anticancer Drug Screen. Data for the mec2-1 strain (AID 157)
conditions: S. cerevisiae mec2-1 strain, at 50.0 µM
Compounds without any hit were thinned out: in the full panel of roughly 79,000, 15% have a hit. Calls of active or inactive are those of the source. No stated cut-off is given here; in the data, active means growth inhibition above about 70%; inactive means the rest.
Bench note: report the call from true = active, false = inactive

Answered examples (4):
• c1ccc(N2CCN(Cc3c[nH]c4ccccc34)CC2)cc1 = false
• COC1CC2C=C(C)/C=C/C=C/C(=O)NC(c3ccccc3)C/C=C/CCC(O)CC(=O)C2=C1O (stereo unspecified) = true
• CCC[CH2][Sn]([CH2]CCC)[S]CC(N)C(=O)O (stereo unspecified) = true
• C=CCOC(N)=O = false

input: Lab log entry: "CC(=O)c1cc2c(cc1O)C(C)(C)CCC2(C)C" — outcome as called in the assay?
output: true

input: Lab log entry: "CCOC(=O)CC(=Nc1cc(C)on1)N(CC)CC" — outcome as called in the assay?
output: false

input: Lab log entry: CC1(Br)Cc2ccccc2C1=O (stereo unspecified) — outcome as called in the assay?
output: false

input: Lab log entry: "COP(=O)(OC)OC.COP(=O)(OC)OC.COP(=O)(OC)OC.COP(=O)(OC)OC.COP(=O)(OC)OC.COP(=O)(OC)OC.[Mn+2].[O-][Cl+3]([O-])([O-])O" — outcome as called in the assay?
output: false

input: Lab log entry: OC1(CN2CCCCC2)N=C(c2ccccc2)c2ccsc2-n2cccc21 (stereo unspecified) — outcome as called in the assay?
output: false

input: Lab log entry: "O=[N+]([O-])/C=C\C(Cl)(Cl)Cl" — outcome as called in the assay?
output: true

input: Lab log entry: "C/C=N/Nc1ccc([N+](=O)[O-])cc1[N+](=O)[O-]" — outcome as called in the assay?
output: false

----------
test: NCI Yeast Anticancer Drug Screen. Data for the cln2 rad14 strain (AID 165)
conditions: S. cerevisiae cln2 rad14 strain, at 50.0 µM (retest, dose inferred, filed as 5.0)
This is part of a sample that, as a whole, favours compounds with a hit. Of some 79,000 tested, about 15% had one in any assay. Calls of active or inactive are those of the source. Cut-off read from the data, not from the text of the source: active = growth inhibition above about 70%; inactive = the rest.
Bench note: report the call from active, inactive

- CNP1(=O)OC(c2ccccc2)=CCN1CCCl (stereo unspecified): inactive

input: Lab log entry: "CC[CH2][Pb]([CH2]CC)([CH2]CC)[NH]S(=O)(=O)c1ccc(C)cc1" — outcome as called in the assay?
output: active

input: Lab log entry: "COC1=C(Cl)C(=O)c2ccccc2C1=O" — outcome as called in the assay?
output: active

input: Lab log entry: "CN(C)c1ccc(C(c2c(O)c3ccccc3oc2=O)c2c(O)c3ccccc3oc2=O)cc1" — outcome as called in the assay?
output: inactive

input: Lab log entry: "O=C(OCCl)c1ccccc1" — outcome as called in the assay?
output: inactive

input: Lab log entry: "CC/C(=C\c1ccc(Cl)c(Cl)c1)[N+](=O)[O-]" — outcome as called in the assay?
output: active

input: Lab log entry: C[N+](C)(C)CC1CCCC(C[N+](C)(C)C)C1O (stereo unspecified) — outcome as called in the assay?
output: inactive

input: Lab log entry: CCC(C)c1cnc(CC(C)C)c(=O)n1O (stereo unspecified) — outcome as called in the assay?
output: active

input: Lab log entry: "O=[n+]1c2ccccc2n([O-])c2ccccc21" — outcome as called in the assay?
output: active

input: Lab log entry: "O=C(N/N=C/c1cc(Br)cc(Br)c1[O-])c1ccccc1O.O=C(N/N=C/c1cc(Br)cc(Br)c1[O-])c1ccccc1O.[Co+2]" — outcome as called in the assay?
output: active

input: Lab log entry: "Cc1cc(C(C)(C)c2ccc(O)c(C)c2)ccc1O" — outcome as called in the assay?
output: active
